Would you mind telling me the reported log10(IC50) of each entry?
- experimental_system: sodium iodide symporter (NIS), iodide uptake in FRTL5 cells (Rattus norvegicus, UniProt Q63008)
- Construct: endogenous in cells; host or cells: FRTL5 (rat thyroid-derived cells)
- Sequence (Q63008 whole entry): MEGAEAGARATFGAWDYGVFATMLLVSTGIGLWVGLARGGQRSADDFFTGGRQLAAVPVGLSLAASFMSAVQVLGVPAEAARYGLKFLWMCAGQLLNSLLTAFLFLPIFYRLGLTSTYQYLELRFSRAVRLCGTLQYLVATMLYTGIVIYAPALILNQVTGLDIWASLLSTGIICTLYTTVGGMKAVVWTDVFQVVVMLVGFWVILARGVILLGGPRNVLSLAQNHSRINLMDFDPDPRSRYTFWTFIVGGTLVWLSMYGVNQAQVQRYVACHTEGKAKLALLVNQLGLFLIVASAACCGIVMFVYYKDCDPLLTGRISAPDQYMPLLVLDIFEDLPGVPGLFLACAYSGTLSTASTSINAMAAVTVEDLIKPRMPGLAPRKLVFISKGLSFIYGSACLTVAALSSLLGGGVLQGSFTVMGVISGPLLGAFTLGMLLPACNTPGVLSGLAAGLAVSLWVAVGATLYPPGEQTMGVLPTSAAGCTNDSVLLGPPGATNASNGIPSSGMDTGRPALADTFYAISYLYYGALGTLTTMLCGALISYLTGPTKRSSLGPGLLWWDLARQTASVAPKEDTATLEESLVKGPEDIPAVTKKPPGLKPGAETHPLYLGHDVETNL
- experiment_notes: Inhibition of iodide uptake in FRTL5 cells, non radioactive arsenic/cerium assay
- Format: cell-based
- run_conditions: Table 1, variations at R1; averaged from three or four independent experiments; NaI 10 μM, 1 hour, 20°C; read-out: IC50 (μM), inhibitory activity against iodide uptake in FRTL5 cells
Could you please treat all values as log10 of IC50 in µM?

Problem: Fill in the blank: the reported log10(IC50) of COc1ccc(COC(=O)C2=C(C)NC(=O)NC2c2ccc(C)o2)cc1 (centres unmarked) is ____.
Result: -1.05

Problem: Another compound to look at: COc1ccc(COC(=O)C2=C(C)NC(=O)NC2c2ccc(F)cc2)cc1 (centres unmarked)
Result: -0.82

Problem: Try this compound next: COc1ccc(COC(=O)C2=C(C)NC(=O)NC2c2cccc(Br)c2)cc1 (centres unmarked)
Result: -0.46

Problem: COc1ccc(COC(=O)C2=C(C)NC(=O)NC2C2CC2)cc1 (centres unmarked) , same question.
Result: -0.12

Problem: Same question for COc1ccc(COC(=O)C2=C(C)NC(=O)NC2c2cccs2)cc1 (centres unmarked) please.
Result: -1.30

Problem: One more compound: COc1ccc(COC(=O)C2=C(C)NC(=O)NC2c2ccsc2)cc1 (centres unmarked)
Result: -1.40

Problem: // repeat for COc1ccc(COC(=O)C2=C(C)NC(=O)NC2c2ccco2)cc1 (centres unmarked) and report
Result: -2.49

Problem: Could you do the same for COc1ccc(COC(=O)C2=C(C)NC(=O)NC2c2cccc(Cl)c2)cc1 (centres unmarked) , please?
Result: -1.00

Problem: Now consider COc1ccc(COC(=O)C2=C(C)NC(=O)NC2c2ccoc2)cc1 (centres unmarked) .
Result: -1.70

Problem: Same read-out for COc1ccc(COC(=O)C2=C(C)NC(=O)NC2c2ccccc2F)cc1 (centres unmarked) ?
Result: -1.19

Problem: Follow-up item: COc1ccc(COC(=O)C2=C(C)NC(=O)NC2c2cccc(F)c2)cc1 (centres unmarked)
Result: -1.12

* * *

Exercise: for every item that follows, state its recorded melting point.

Problem: Endpoint output: melting point of CC1=C(C(=O)OCc2ccccc2)C(c2ccccc2)NC(=O)N1 (stereo not drawn) . Value?
Result: 174 to 175 °C

Problem: Check COc1ccc(COC(=O)C2=C(C)N(C)C(=O)NC2c2ccco2)cc1 (stereo not drawn) too.
Result: 112 to 113 °C

Problem: Another: COc1ccc(COC(=O)C2=C(c3cccs3)NC(=O)NC2c2ccccc2)cc1 (stereo not drawn)
Result: 78 to 80 °C

Problem: Then CC1=C(C(=O)OCc2ccc3c(c2)OCO3)C(c2ccco2)NC(=O)N1 (stereo not drawn) ?
Result: 169 to 171 °C

Problem: Same question, COc1ccc(COC(=O)C2=C(Cc3ccccc3)NC(=O)NC2c2ccccc2)cc1 (stereo not drawn) this time
Result: 140 to 142 °C

Problem: Record: COc1cccc(COC(=O)C2=C(C)NC(=O)NC2c2ccco2)c1 (stereo not drawn)
Result: 165 to 166 °C

Problem: Another: CC1=C(C(=O)OCc2ccccc2Cl)C(c2ccccc2)NC(=O)N1 (stereo not drawn)
Result: 193 to 195 °C

Problem: Try this compound next: COc1ccc(COC(=O)C2=C(C)NC(=O)NC2c2ccccc2)cc1 (stereo not drawn)
Result: 162 to 164 °C

Problem: Please answer likewise for CC1=C(C(=O)NCc2ccc3c(c2)OCO3)C(c2ccccc2)NC(=O)N1 (stereo not drawn)
Result: 235 to 237 °C

Problem: What do you have for CC1=C(C(=O)OCc2ccc3c(c2)OCO3)C(c2ccco2)NC(=O)N1C (stereo not drawn) ?
Result: 141 to 143 °C

Problem: Another compound to check: COc1ccc(COC(=O)C2=C(C)NC(=O)NC2c2cccc(Cl)c2)cc1 (stereo not drawn)
Result: 180 to 181 °C

Problem: Repeat for the following compound: CC1=C(C(=O)OCc2ccc(F)cc2)C(c2ccccc2)NC(=O)N1 (stereo not drawn)
Result: 196 to 197 °C

Problem: Same question for COc1ccc(COC(=O)C2=C(C)NC(=O)NC2C2CC2)cc1 (stereo not drawn) please.
Result: 158 to 160 °C

Problem: Request: CC1=C(C(=O)OCc2ccccc2C)C(c2ccccc2)NC(=O)N1 (stereo not drawn)
Result: 157 to 159 °C

Problem: Now consider COc1ccc(COC(=O)C2=C(C)NC(=O)NC2c2cccc(Br)c2)cc1 (stereo not drawn) .
Result: 164 to 166 °C

Problem: Same thing, different compound: COc1ccc(COC(=O)C2=C(C)NC(=O)NC2c2cccc(F)c2)cc1 (stereo not drawn)
Result: 173 to 174 °C

Problem: Also check COc1ccc(COC(=O)C2=C(C)N(C)C(=O)N(C)C2c2ccco2)cc1OC (stereo not drawn)
Result: 122 to 124 °C

Problem: Same question, COc1ccc(COC(=O)C2=C(C)NC(=O)NC2c2ccsc2)cc1 (stereo not drawn) this time
Result: 156 to 158 °C
